biological target: CCAAT/enhancer-binding protein beta (Homo sapiens); assay: ATG_C_EBP_CIS: Attagene CIS-FACTORIAL HepG2 Assay for human CCAAT/Enhancer Binding Protein (C/EBP) beta (AID 2282927); settings: HepG2 Attagene cis-factorial transcription factor reporter; actives raise or lower the signal
Calls of active or inactive are those of the source. How the source made its calls: active means hit-call score of the fitted dose curve at least 0.9, where 1 is the maximum; inactive means score below 0.9.
// allowed return values: active, inactive

Worked set:
>  <Compound>
CC(C)(C)c1ccc(O)cc1

>  <System under test>
CCAAT/enhancer-binding protein beta (Homo sapiens)

>  <Category>
inactive

$$$$
>  <Compound>
NNC(N)=S

>  <System under test>
CCAAT/enhancer-binding protein beta (Homo sapiens)

>  <Category>
inactive

$$$$
>  <Compound>
Oc1ccccc1Br

>  <System under test>
CCAAT/enhancer-binding protein beta (Homo sapiens)

>  <Category>
inactive

$$$$

What did this assay record as the result for CCCCOCCOP(=O)(OCCOCCCC)OCCOCCCC ?
inactive

# fetch the recorded call for Clc1ccc(Oc2ccccc2)cc1 here
inactive

What outcome does the record of this test show for CC(Cl)(Cl)C(=O)O ?
inactive

Just curious, what result did CCN(CC)c1ccccc1 get here?
inactive

Kindly provide the recorded test outcome for the following compound: OCC(F)(F)OC(F)(F)C(F)(F)OC(F)(F)CO
inactive

Record lookup: outcome of this test for CCOc1ccc(C(C)(C)COCc2cccc(Oc3ccccc3)c2)cc1 ?
inactive

Could you please tell me the result logged for CCOC(=O)c1ccccc1C(=O)OCC in this assay?
inactive

In this assay, the call recorded for CCCN(CCC)c1c([N+](=O)[O-])cc(C(C)C)cc1[N+](=O)[O-] was what?
inactive

Answer briefly: the call reported for CCCCN(CCCC)N=O in this assay.
inactive

Called result for CC(C)(C)c1ccccc1OP(=O)(Oc1ccccc1)Oc1ccccc1
active

Call for entry CCCCC(CC)COC(=O)c1c(Br)c(Br)c(Br)c(Br)c1C(=O)OCC(CC)CCCC (stereo unspecified) :
inactive

====

read-out: Collagen I, COL1A1 (gene 1277); experiment: BSK_MyoF_CollagenI: BioMAP Diversity Plus: MyoF Assay for Collagen I Biomarker Activity (AID 2284238); details: primary human lung fibroblasts
The source made the active and inactive calls. Rule for the calls: active = hit-call score of the fitted dose curve at least 0.9, where 1 is the maximum; inactive = score below 0.9.
Give your call using only these classes: active, inactive

>  <Compound>
FC(F)(F)C(F)(C(F)(F)F)C(F)(F)C(F)(F)CC1CO1 (configuration not stated)

>  <Category>
inactive

$$$$
>  <Compound>
O=S1(=O)OCC2C(CO1)C1(Cl)C(Cl)=C(Cl)C2(Cl)C1(Cl)Cl (configuration not stated)

>  <Category>
inactive

$$$$
>  <Compound>
O=C(O)C(F)(F)OC(F)(F)C(F)(F)OC(F)(F)F

>  <Category>
inactive

$$$$

What did this assay record as the result for CCOP(=S)(OCC)SCn1nnc2ccccc2c1=O ?
inactive

// param item: ClC(Cl)=C(c1ccc(Cl)cc1)c1ccccc1Cl ; yields the recorded call
active

Call for entry OCC(F)(F)OC(F)(F)C(F)(F)OC(F)(F)CO :
inactive

Given C=CC(=O)OCC(CC)(COC(=O)C=C)COC(=O)C=C , state the outcome it received in this test.
active

====

read-out: Vascular cell adhesion molecule 1 (VCAM1), VCAM1 (gene 7412); assay: BSK_hDFCGF_VCAM1: BioMAP Diversity Plus: hDFCGF Assay for Vascular cell adhesion molecule 1 (VCAM1) Biomarker Activity (AID 2283065); conditions: primary human foreskin fibroblasts; actives raise or lower the signal
The source made the active and inactive calls. How the source made its calls: active means hit-call score of the fitted dose curve at least 0.9, where 1 is the maximum; inactive means score below 0.9.
Answer with one of the outcomes 1.0 = active, 0.0 = inactive

Reference set (5 entries):
>  <Compound>
CCCCCCCc1ccc(O)cc1

>  <Category>
1.0

$$$$
>  <Compound>
Nc1cc2c3c(c1)C(c1ccccc1)=N[C@@H](NC(=O)c1cccnc1)C(=O)N3CC2

>  <Category>
0.0

$$$$
>  <Compound>
[N-]=[N+]=[N-]

>  <Category>
0.0

$$$$
>  <Compound>
C=CC(=O)OCC(CC)(COC(=O)C=C)COC(=O)C=C

>  <Category>
1.0

$$$$
>  <Compound>
c1nc[nH]n1

>  <Category>
0.0

$$$$

What is the recorded call for this compound in the test? OCC1CO1 (centres undefined)
0.0

For this compound, state the assay outcome: CC(Cl)CN(C)C (centres undefined)
0.0

Could you kindly confirm the outcome this assay logged for COCCOCCO ?
0.0

Can you look up the reported call for CN(C)C(=O)Cl for me?
0.0

Per the assay record, what outcome was assigned to CCOS(=O)(=O)OCC ?
0.0

Status in this test for N#Cc1c(-c2ccc(Cl)cc2)[nH]c(C(F)(F)F)c1Br ?
1.0

Test call for this compound, please: Nc1ccc2ccccc2c1
0.0

Entry CCOC(=O)c1ccccc1C(=O)OCC : call = ?
0.0

Dear all, I need the recorded test outcome for CCOP(=S)(Oc1ccc([N+](=O)[O-])cc1)c1ccccc1 (centres undefined) , thank you.
1.0

====

biological target: Bile acid receptor (Homo sapiens); assay: OT_FXR_FXRSRC1_1440: Odyssey Thera (OT) 24-hour HEK293T Protein-Complementation Assay for Farnesoid X receptor/SRC-1 Co-activator (AID 2283384)
Records with an inconclusive call do not appear. Activity calls are given as the source filed them. Rule for the calls: active = hit-call score of the fitted dose curve at least 0.9, where 1 is the maximum; inconclusive = response in the unintended direction; inactive = score below 0.9.

>  <Compound>
CCN(CC)c1ccccc1

>  <AC50>
inactive

$$$$
>  <Compound>
O=S1(=O)OCC2C(CO1)C1(Cl)C(Cl)=C(Cl)C2(Cl)C1(Cl)Cl (centres undefined)

>  <AC50>
50 µM (active)

$$$$
>  <Compound>
O=c1ssc(Cl)c1Cl

>  <AC50>
11.4 µM (active)

$$$$
>  <Compound>
O=NN1CCCC1

>  <AC50>
inactive

$$$$

====

test: ACEA_ER_80hr: ACEA Biosciences xCELLigence Real-Time Cell Analysis on Estrogen Receptor Agonism for Proliferation (AID 2282667); settings: T47D proliferation, impedance (xCELLigence), 80 h
Results filed as inconclusive are left out. Active and inactive are the calls of the source. How the source made its calls: active means hit-call score of the fitted dose curve at least 0.9, where 1 is the maximum; inconclusive means response in the unintended direction; inactive means score below 0.9.
Measurement name: AC50

Previously resolved entries follow.
>  <Compound>
c1cc2c3c(cccc3c1)CC2

>  <Measurement name>
AC50

>  <Measurement>
inactive

$$$$
>  <Compound>
CC1=C(C(=O)Nc2ccccc2)S(=O)(=O)CCO1

>  <Measurement name>
AC50

>  <Measurement>
0.267 µM (active)

$$$$
>  <Compound>
CCOP(=S)(Oc1ccc([N+](=O)[O-])cc1)c1ccccc1 (stereo not drawn)

>  <Measurement name>
AC50

>  <Measurement>
inactive

$$$$
>  <Compound>
CC(=O)CCc1ccc2c(c1)OCO2

>  <Measurement name>
AC50

>  <Measurement>
inactive

$$$$

Give me AC50 for each of these compounds, listed below.
1. COCCOCCO
2. c1ccc2c(c1)sc1ccccc12
3. O=P(Oc1ccccc1)(Oc1ccccc1)Oc1ccccc1
4. CCOP(=S)(S)OCC
5. N#Cc1c(-c2ccc(Cl)cc2)[nH]c(C(F)(F)F)c1Br
6. c1nc[nH]n1
7. CCOP(=S)(NC(C)C)Oc1ccccc1C(=O)OC(C)C (stereo not drawn)
8. CCCCc1ccc(O)cc1

["inactive", "inactive", "inactive", "inactive", "inactive", "inactive", "inactive", "10.5 µM (active)"]

Each compound below has a reported value. Please supply its AC50.
1. CC(C)(C)OOC(C)(C)C
2. N#Cc1ccc(O)cc1
3. O=C(O)C(Cl)Cl
4. CNC(=O)Oc1ccc(N(C)C)c(C)c1

1. inactive
2. inactive
3. inactive
4. inactive

For each of the compounds below, note its AC50.
1. CCCCN(CC)C(=O)SCCC
2. CCCCC(CC)COC(=O)c1c(Br)c(Br)c(Br)c(Br)c1C(=O)OCC(CC)CCCC (stereo not drawn)
3. O=C(O)C(F)(F)C(F)(F)C(=O)O
4. CCCCOCCOP(=O)(OCCOCCCC)OCCOCCCC
5. O=c1[nH]c2ccccc2c(=O)o1
6. CCCCc1ccccc1
7. OCC(F)(F)OC(F)(F)C(F)(F)OC(F)(F)CO
8. CC1(C)CN=C(NN=C(/C=C/c2ccc(C(F)(F)F)cc2)/C=C/c2ccc(C(F)(F)F)cc2)NC1

inactive
inactive
inactive
10.5 µM (active)
inactive
inactive
20.2 µM (active)
0.0563 µM (active)

====

Read-out: TIMP metallopeptidase inhibitor 1 (TIMP1), TIMP1 (gene 7076)
Assay: BSK_hDFCGF_TIMP1: BioMAP Diversity Plus: hDFCGF Assay for TIMP metallopeptidase inhibitor 1 (TIMP1) Biomarker Activity (AID 2283062)
Conditions: primary human foreskin fibroblasts; actives raise or lower the signal
Procedure: BSK_hDFCGF is a cell-based, multiplexed-readout assay that uses foreskin fibroblast, a human skin primary cell, with measurements taken at 24 hours after chemical dosing in a 96-well plate.BSK_hDFCGF_TIMP1 is an assay component measured in the BSK_hDFCGF assay. It measures TIMP-1 antibody related to regulation of gene expression using ELISA technology.Data from the assay component BSK_hDFCGF_TIMP1 was analyzed into 1 assay endpoint. […]
The source made the active and inactive calls. How the source made its calls: active means hit-call score of the fitted dose curve at least 0.9, where 1 is the maximum; inactive means score below 0.9.
Result category, one only: active, inactive

>  <Compound>
CC(Cl)CN(C)C (centres undefined)

>  <Category>
inactive

$$$$
>  <Compound>
Nc1ccc2ccccc2c1

>  <Category>
inactive

$$$$
>  <Compound>
CCCCOCCOP(=O)(OCCOCCCC)OCCOCCCC

>  <Category>
inactive

$$$$
>  <Compound>
CCOP(=S)(Oc1ccc([N+](=O)[O-])cc1)c1ccccc1 (centres undefined)

>  <Category>
inactive

$$$$

Just curious, what result did C=CC(=O)OCC(CC)(COC(=O)C=C)COC(=O)C=C get here?
active

So what was the verdict on O=c1ssc(Cl)c1Cl in this test?
active

For O=C(O)C(F)(F)C(F)(F)C(=O)O , what call appears in the results of this test?
inactive

Could you kindly confirm the outcome this assay logged for O=S1(=O)OCC2C(CO1)C1(Cl)C(Cl)=C(Cl)C2(Cl)C1(Cl)Cl (centres undefined) ?
inactive
